Target: Adenine DNA glycosylase (Homo sapiens)
Details: Compound Concentration 10.0 uM, Hit No
Description: Inhibition of MUTYH by quantifying inhibition of MUTYH-mediated cleavage and dissociation of quenched duplex DNA oligonucleotides, measured as fluorescence at 594 nm. To generate a functional strand incision and increase turn-over this assay is coupled to APE1.
measured quantity: inhibition (%)
Please give a number only; it is taken to be in %.

{"columns": ["structure", "measured on", "unit spec", "inhibition"],
 "data": [
  ["O=C(Nc1nc2cccc(-c3ccc(CN4CCS(=O)(=O)CC4)cc3)n2n1)C1CC1", "Adenine DNA glycosylase (Homo sapiens)", "%", 3.59]
]}

Field: next compound
Challenge: Form field: reported inhibition of COc1ccccc1Nc1nc(-c2nn(Cc3c(F)cc(OCCCO)cc3F)c3ccccc23)ncc1OC
Response given: -2.18

###

Target: Endonuclease III-like protein 1 (Homo sapiens) (UniProt P78549);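 further: enzyme assay tracking NTHL1 cutting and release of a quenched double-stranded DNA oligo substrate, read as fluorescence at 594 nm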
Sequence (P78549 whole entry): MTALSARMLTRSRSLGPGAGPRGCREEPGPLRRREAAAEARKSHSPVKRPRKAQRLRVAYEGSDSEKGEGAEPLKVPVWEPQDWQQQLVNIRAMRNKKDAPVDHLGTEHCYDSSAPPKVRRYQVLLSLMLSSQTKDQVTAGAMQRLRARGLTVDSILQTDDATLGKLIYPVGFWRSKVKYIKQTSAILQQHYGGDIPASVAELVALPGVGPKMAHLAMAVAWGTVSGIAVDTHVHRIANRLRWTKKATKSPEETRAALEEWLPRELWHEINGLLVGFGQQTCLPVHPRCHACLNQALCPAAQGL
Details: Compound Concentration 10.0 uM, Hit No
Description: Inhibition of NTHL1 by quantifying inhibition of NTHL1-mediated cleavage and dissociation of quenched duplex DNA oligonucleotides, measured as fluorescence at 594 nm.
measured quantity: inhibition (%)
Kindly provide the numeric value in % only, without the unit symbol.

# annotated cases, reported inhibition shown
{"columns": ["compound", "measured on", "unit spec", "inhibition"],
 "data": [
  ["C[C@@]1(Cc2ccc(C#N)cc2)C(=O)N(c2cc(Cl)cc(Cl)c2)c2ncc(C(=O)NC3(c4nc(C5CCC5)no4)CC3)n21", "Endonuclease III-like protein 1 (Homo sapiens) (UniProt P78549)", "%", -5.89],
  ["CCCC(=O)N[C@@H](Cc1ccc(O)cc1)C(=O)NCCCCCCCNCCCCN", "Endonuclease III-like protein 1 (Homo sapiens) (UniProt P78549)", "%", -3.56],
  ["C[C@@H](NCCCc1cccc(C(F)(F)F)c1)c1cccc2ccccc12", "Endonuclease III-like protein 1 (Homo sapiens) (UniProt P78549)", "%", -5.41],
  ["CSc1cccnc1N1CCN(Cc2nc3ccccc3[nH]2)CC1", "Endonuclease III-like protein 1 (Homo sapiens) (UniProt P78549)", "%", -5.89],
  ["CC(C)NCC(O)COc1cccc2ccccc12 (stereo not given)", "Endonuclease III-like protein 1 (Homo sapiens) (UniProt P78549)", "%", 13.7],
  ["CCc1nc2c(o1)CC(c1ccc(C)cc1C)CC2=O (stereo not given)", "Endonuclease III-like protein 1 (Homo sapiens) (UniProt P78549)", "%", -4.39],
  ["CC1(C)CCC(C)(C)c2cc(C(=O)Nc3ccc(C(=O)O)cc3)ccc21", "Endonuclease III-like protein 1 (Homo sapiens) (UniProt P78549)", "%", 2.66],
  ["COc1ccc(CN(CCN(C)C)c2ccccn2)cc1", "Endonuclease III-like protein 1 (Homo sapiens) (UniProt P78549)", "%", 21.7],
  ["C[C@@H](NCCc1ccc(O)cc1)[C@@H](O)c1ccc(O)cc1 (relative stereo)", "Endonuclease III-like protein 1 (Homo sapiens) (UniProt P78549)", "%", 17.3]
]}

Consider now this further compound.
Challenge: So what's the measured inhibition for this one? O=C(O)c1ccc(S(=O)(=O)N(Cc2ccc(OC(F)(F)F)cc2)c2ncc(C(F)(F)F)cc2Cl)cc1
Response given: 14.6

###

Each item that follows carries a reported inhibition.
Target: Adenine DNA glycosylase (Homo sapiens) (UniProt Q9UIF7)
Sequence (Q9UIF7 whole entry): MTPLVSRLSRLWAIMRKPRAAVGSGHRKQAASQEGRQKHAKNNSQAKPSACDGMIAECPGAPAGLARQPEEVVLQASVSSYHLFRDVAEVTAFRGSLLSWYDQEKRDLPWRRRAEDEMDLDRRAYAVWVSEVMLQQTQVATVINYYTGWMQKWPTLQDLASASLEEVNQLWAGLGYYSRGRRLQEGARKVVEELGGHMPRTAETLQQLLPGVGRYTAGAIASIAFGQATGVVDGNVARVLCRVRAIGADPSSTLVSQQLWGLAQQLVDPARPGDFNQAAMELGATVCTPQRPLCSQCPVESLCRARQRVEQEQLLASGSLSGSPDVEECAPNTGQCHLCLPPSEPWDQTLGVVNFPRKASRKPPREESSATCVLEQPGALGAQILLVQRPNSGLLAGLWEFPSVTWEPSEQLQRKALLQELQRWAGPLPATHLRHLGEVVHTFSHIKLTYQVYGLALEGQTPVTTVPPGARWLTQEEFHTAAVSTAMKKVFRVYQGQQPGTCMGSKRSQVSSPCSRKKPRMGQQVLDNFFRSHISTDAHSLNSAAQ
Settings: Compound Concentration 10.0 uM, Hit No
The reply should contain only the number, in %.

Recorded results for 5 molecules are shown here.
{"columns": ["molecule", "inhibition, %"],
 "data": [
  ["Cc1cc([C@@H](C)Nc2ccccc2C(=O)O)c2nc(N3CCOCC3)cc(=O)n2c1", 10.5],
  ["O=S(=O)(c1ccccc1)N(CC(F)(F)F)c1ccc(C(O)(C(F)(F)F)C(F)(F)F)cc1", 11.1],
  ["CCc1cc(C(C)=O)c(O)cc1OCCCCCC(C)(C)c1nn[nH]n1", 7.7],
  ["CCCCC[C@H](O)/C=C/[C@H]1[C@H](O)CC(=O)[C@@H]1CCCCCCC(=O)O", -0.521],
  ["CC1(C)CCC(C)(C)c2cc(C(=O)Nc3ccc(C(=O)O)cc3)ccc21", 14.4]
]}

Challenge: Quick check: inhibition of CN(C)CCOc1ccc(-c2nc(-c3ccncc3)c(-c3ccc4c(c3)CC/C4=N\O)[nH]2)cc1 ?
Response given: 0.369

Challenge: Which inhibition value belongs to CCCCN(CCCC)C(=O)CN1C[C@@H](c2cc(OC)c3c(c2)OCO3)[C@H](C(=O)O)[C@H]1CC(C)(C)CCC ?
Response given: -4.04

Challenge: Bench note: what inhibition did O=C(Cc1ccccc1)Nc1nc2ccc(Cl)cc2c2nc(-c3ccco3)nn12 show?
Response given: 13.8

Challenge: Quick check: inhibition of Oc1cc2c(cc1O)CN(C(=S)NCCc1ccc(Cl)cc1)CCC2 ?
Response given: 73.8

Challenge: Which measured inhibition value corresponds to CN1CCN(Cc2ccc(-c3cccc(C(=O)Nc4ccccc4CC(=O)O)c3)cc2)CC1 ?
Response given: 17.7

Challenge: What does the record list as inhibition for Cn1c(SCc2ccc(C(C)(C)C)cc2)nc(N)cc1=O ?
Response given: 6.33

Challenge: Requested read-out: inhibition. Entry: Cn1c(=O)n(CCCO)c(=O)c2c1nc(Oc1cccc(Cl)c1)n2Cc1ccc(Cl)cc1
Response given: 15.9

Challenge: Please look up its inhibition: N=C(N)NC(=O)Cc1c(Cl)cccc1Cl
Response given: -4.2

Challenge: Entry COC1(C[S@@+]([O-])c2ccccc2)CCN(CCc2c[nH]c3ccc(F)cc23)CC1 : reported inhibition = ?
Response given: -7.4

Challenge: Recorded inhibition for Cc1cc(SCc2sc(-c3ccc(C(F)(F)F)cc3)nc2C)ccc1OCC(=O)O , please?
Response given: 14.6

Challenge: For the molecule shown here, CC(C)NCC(O)c1ccc(N)c(C#N)c1 (stereo not given) , give the reported inhibition.
Response given: 4.24

Challenge: Bench note: what inhibition did CCN(Cc1ccncc1)C(=O)C(CO)c1ccccc1 (stereo not given) show?
Response given: 14

Challenge: Please look up its inhibition: COc1ccccc1-c1cc(Nc2cccc(CS(N)(=O)=O)c2)ncn1
Response given: 4.56

Challenge: Given CCOC(=O)N[C@@H]1CC[C@@H]2[C@@H](C1)C[C@H]1C(=O)O[C@H](C)[C@H]1[C@H]2/C=C/c1ccc(-c2cccc(F)c2)cn1 , state its recorded inhibition.
Response given: 1.43

Challenge: Sample CC1(C)N=C(C2CCCCC2)c2ccc(C#N)cc2N(c2ccc(NCCNC3CCOCC3)cc2)C1=O — what was its inhibition?
Response given: 1.14

###

Biological target: Single-strand selective monofunctional uracil DNA glycosylase (Homo sapiens) (UniProt Q53HV7);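 further: enzymatic SMUG1 assay coupled with APE1, reading fluorescence at 594 nm released when a quenched double-stranded DNA oligonucleotide substrate is cleaved and separated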
Sequence (Q53HV7 whole entry): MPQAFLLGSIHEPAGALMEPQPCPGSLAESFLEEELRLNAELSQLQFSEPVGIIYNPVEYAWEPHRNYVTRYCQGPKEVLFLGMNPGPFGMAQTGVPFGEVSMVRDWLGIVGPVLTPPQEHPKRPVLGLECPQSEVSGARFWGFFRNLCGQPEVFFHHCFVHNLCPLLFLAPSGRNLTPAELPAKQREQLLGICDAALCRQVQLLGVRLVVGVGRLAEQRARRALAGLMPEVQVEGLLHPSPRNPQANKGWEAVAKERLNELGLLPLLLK
Conditions: Compound Concentration 10.0 uM, Hit No
Description: Inhibition of SMUG1 by quantifying inhibition of SMUG1-mediated cleavage and dissociation of quenched duplex DNA oligonucleotides, measured as fluorescence at 594 nm. To generate a functional strand incision and increase turn-over this assay is coupled to APE1.
measured quantity: inhibition (%)
The response must be a number in % with no trailing unit.

{"columns": ["structure", "unit spec", "value"],
 "data": [
  ["CN1CCN(C(=O)C(C)(C)c2ccc(C(=O)Nc3cn4cc(-c5cc(C(C)(C)C)cc(C(C)(C)C)c5)ccc4n3)cc2)CC1", "%", 11.1],
  ["COC[C@H](O)Cn1c(=O)cnn(-c2ccc(Cl)c(C(=O)NCC3(O)CCCCCC3)c2)c1=O", "%", -5.5],
  ["CC(C)Oc1ccc(Cc2ccc(NC3=NCCN3)cc2)cc1", "%", -1.14],
  ["O=C(O)CC/C=C\\C[C@@H]1CO[C@H](c2ccccc2Cl)O[C@@H]1c1ccccc1O", "%", 0.5],
  ["CC[C@@H]1CN2C(=O)N(C)c3nc(-c4ccccc4)[nH]c3C2=N1", "%", -6.04]
]}

Challenge: Request the reported inhibition associated with O=C(c1ccc(F)c(F)c1Nc1ccc(I)cc1F)N1CC(O)([C@@H]2CCCCN2)C1
Response given: 13.1

Challenge: Looking for the measured inhibition of COc1ncc(F)cc1CNc1ccc(Cc2c[nH]c3ncc(C)cc23)c(F)n1 , can you help?
Response given: 18.6

Challenge: Reported inhibition for Cc1c(C(=O)NN2CCCCC2)nn(-c2ccc(Cl)cc2Cl)c1-c1ccc(Cl)cc1 : what is it?
Response given: 11.7

Challenge: What inhibition value was documented for this compound, CNC(=O)c1ccc(Nc2ncc(C(F)(F)F)c(NCc3nccnc3N(C)S(C)(=O)=O)n2)cc1 ?
Response given: 23.4

###

Overview of recorded inhibition for various compounds
Biological target: Adenine DNA glycosylase (Homo sapiens);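 further: human MUTYH activity read as 594 nm fluorescence from cleavage and release of a quenched DNA duplex, coupled with APE1 for strand incision, lower signal meaning inhibition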
Conditions: Compound Concentration 10.0 uM, Hit No
Just the number in %, nothing appended.

Completed entries (count: 5):
{"columns": ["structure", "inhibition (%)"],
 "data": [
  ["O=C(O)c1n[nH]c2c1C[C@H]1C[C@@H]21", -6.12],
  ["Cc1cc(OCCC(C)(C)O)cc(C)c1-c1ccc(F)c2c1CC[C@H]2Oc1ccc2c(c1)OC[C@H]2CC(=O)O", 10],
  ["Cc1cc(Cn2cnc3c2C[C@@H](C(=O)O)N(C(=O)C(c2ccccc2)c2ccccc2)C3)ccc1N(C)C", 20.9],
  ["COC(=O)c1sccc1S(=O)(=O)Nc1ccc(Nc2ccccc2)cc1OC", -9.5],
  ["NC(=O)NN=Cc1ccc(Oc2ccc(F)cc2)cc1", 8.22]
]}

With those in mind, consider the next compound.
Challenge: Value lookup for inhibition; key = O=C(O)CCc1ccc(NCc2cccc(Oc3ccccc3)c2)cc1
Response given: 13.9
